Tested Target: human Edg-1 (S1P1) (Homo sapiens, UniProt P21453)
Construct: expressed in transfected cells; host or cells: HEK-293
Sequence (P21453 whole entry): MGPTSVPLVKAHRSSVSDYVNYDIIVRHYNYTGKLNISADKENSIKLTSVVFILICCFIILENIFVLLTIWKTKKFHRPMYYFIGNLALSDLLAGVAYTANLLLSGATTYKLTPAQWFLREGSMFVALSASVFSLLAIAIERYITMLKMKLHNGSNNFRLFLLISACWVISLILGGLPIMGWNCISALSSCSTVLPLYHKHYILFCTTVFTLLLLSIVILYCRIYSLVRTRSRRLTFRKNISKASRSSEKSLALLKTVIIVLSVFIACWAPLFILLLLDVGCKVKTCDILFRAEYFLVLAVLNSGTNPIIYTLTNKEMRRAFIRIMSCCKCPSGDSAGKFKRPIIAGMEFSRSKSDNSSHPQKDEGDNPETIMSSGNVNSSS
Method Notes: S1P1 binding assay: inhibition of [33P]-S1P binding to membrane fraction of HEK-293 cells transferred with the human Edg-1 (S1P1) gene
Condition Label: test compound at 10 μM; inhibition of [33P]-S1P binding to the membrane fraction of HEK-293 cells expressing human Edg-1 (S1P1)
Experimental: The membrane fraction was obtained by treating the cells with a solubilizing buffer (1 mM Tris/HCl, pH 7.2) for 10 minutes on ice, centrifuging at 1000×g for 5 minutes to remove insoluble fractions, and then centrifuging at 40000×g for 30 minutes at 4° C. […] The same procedure was carried out in the absence of the test compound, and the amount (B) of [^33P]-S1P bound was calculated. […]
Endpoint Name: inhibition at 10 µM (%)

For orientation, consider the following solved cases.
Compound: CCn1c(Oc2ccc3cc[nH]c3c2)nnc1[C@@H](C)NS(=O)(=O)c1cc(F)ccc1C [Compound 390]
Endpoint Name: inhibition at 10 µM
Obs Value: 65.9
--
Compound: CCn1c(Oc2cccc(N3CCOCC3)c2)nnc1[C@@H](C)NS(=O)(=O)c1ccc(Cl)c(Cl)c1 [Compound 34]
Endpoint Name: inhibition at 10 µM
Obs Value: 106

[1] CCn1c(Oc2ccc3cc[nH]c3c2)nnc1[C@@H](C)NS(=O)(=O)c1cccc(C#N)c1 [Compound 338]
[2] CCn1c(Oc2ccc3c(c2)CCC(=O)N3)nnc1[C@@H](C)NS(=O)(=O)c1ccc(Cl)c(Cl)c1 [Compound 68]
## Input Name the one with the greater inhibition at 10 µM value, either 1 or 2 as given. Pick one; state its label.
## Output 2
(2: 101%, 1: 69.2%)
